- assay.comment: Intravenous MDZ (1.0 mg i.v.) plasma pharmacokinetics (MDZ and 1′-OH-MDZ) alone and after repeated inhibitor administration
- assay.setup: human, in vivo, iv, 1 mg, MDZ Tmax, MDZ alone, MDZ 1 mg i.v.; ITZ arm (Table S3); geometric mean (90% CI)
quantity.kind: Tmax (min)
Give the number; min is assumed, so skip it.

Req: Form field: reported Tmax of Cc1ncc2n1-c1ccc(Cl)cc1C(c1ccccc1F)=NC2 [MDZ, midazolam]
Resp: 16.8

* * *

- assay.comment: Intravenous MDZ (1.0 mg i.v.) plasma pharmacokinetics (MDZ and 1′-OH-MDZ) alone and after repeated inhibitor administration
- assay.setup: human, in vivo, iv, 1 mg, MDZ Cmax, MDZ alone, MDZ 1 mg i.v.; ITZ arm (Table S3); geometric mean (90% CI)
quantity.kind: Cmax (ng/mL)
Give the number; ng/mL is assumed, so skip it.

Req: Form field: reported Cmax of "Cc1ncc2n1-c1ccc(Cl)cc1C(c1ccccc1F)=NC2"
Resp: 25

* * *

- assay.comment: Oral MDZ (1.5 mg p.o.) plasma pharmacokinetics (MDZ and 1′-OH-MDZ) alone and after repeated inhibitor administration
- assay.setup: human, in vivo, po, 1.5 mg, MDZ AUC0– (zero to infinity), MDZ alone, MDZ 1.5 mg p.o.; APZ arm (Table S1); geometric mean (90% CI)
quantity.kind: AUC (ng·h/mL)
Give the number; ng·h/mL is assumed, so skip it.

Req: Form field: reported AUC of "Cc1ncc2n1-c1ccc(Cl)cc1C(c1ccccc1F)=NC2"
Resp: 10.6

* * *

- assay.comment: Intravenous MDZ (1.0 mg i.v.) plasma pharmacokinetics (MDZ and 1′-OH-MDZ) alone and after repeated inhibitor administration
- assay.setup: human, in vivo, iv, 1 mg, MDZ T1/2, MDZ alone, MDZ 1 mg i.v.; FKZ arm (Table S2); geometric mean (90% CI)
quantity.kind: half-life (h)
Give the number; h is assumed, so skip it.

Req: Form field: reported half-life of "Cc1ncc2n1-c1ccc(Cl)cc1C(c1ccccc1F)=NC2"
Resp: 1.55

* * *

- assay.comment: Oral MDZ (1.5 mg p.o.) plasma pharmacokinetics (MDZ and 1′-OH-MDZ) alone and after repeated inhibitor administration
- assay.setup: human, in vivo, po, 1.5 mg, MDZ AUClast, MDZ alone, MDZ 1.5 mg p.o.; ITZ arm (Table S3); geometric mean (90% CI)
quantity.kind: AUC(0-t) (ng·h/mL)
Give the number; ng·h/mL is assumed, so skip it.

Req: Form field: reported AUC(0-t) of "Cc1ncc2n1-c1ccc(Cl)cc1C(c1ccccc1F)=NC2"
Resp: 8.61

* * *

- assay.comment: Intravenous MDZ (1.0 mg i.v.) plasma pharmacokinetics (MDZ and 1′-OH-MDZ) alone and after repeated inhibitor administration
- assay.setup: human, in vivo, iv, 1 mg, MDZ CL, MDZ alone, MDZ 1 mg i.v.; APZ arm (Table S1); geometric mean (90% CI)
quantity.kind: clearance (mL/min)
Give the number; mL/min is assumed, so skip it.

Req: Form field: reported clearance of Cc1ncc2n1-c1ccc(Cl)cc1C(c1ccccc1F)=NC2 [MDZ, midazolam]
Resp: 998

* * *

- assay.comment: Intravenous MDZ (1.0 mg i.v.) plasma pharmacokinetics (MDZ and 1′-OH-MDZ) alone and after repeated inhibitor administration
- assay.setup: human, in vivo, iv, 1 mg, MDZ AUC0– (zero to infinity), MDZ alone, MDZ 1 mg i.v.; FKZ arm (Table S2); geometric mean (90% CI)
quantity.kind: AUC (ng·h/mL)
Give the number; ng·h/mL is assumed, so skip it.

Req: Form field: reported AUC of Cc1ncc2n1-c1ccc(Cl)cc1C(c1ccccc1F)=NC2 [MDZ, midazolam]
Resp: 12.4

* * *

- assay.comment: Intravenous MDZ (1.0 mg i.v.) plasma pharmacokinetics (MDZ and 1′-OH-MDZ) alone and after repeated inhibitor administration
- assay.setup: human, in vivo, iv, 1 mg, i.v. MDZ CL, Baseline, FKZ arm; MDZ 1.0 mg i.v. before inhibitor; geometric mean (range)
quantity.kind: clearance
State the result as a value with its unit after it.

Req: Form field: reported clearance of "Cc1ncc2n1-c1ccc(Cl)cc1C(c1ccccc1F)=NC2"
Resp: 1350 mL/min

* * *

- assay.comment: Intravenous MDZ (1.0 mg i.v.) plasma pharmacokinetics (MDZ and 1′-OH-MDZ) alone and after repeated inhibitor administration
- assay.setup: human, in vivo, iv, 1 mg, MDZ T1/2, MDZ alone, MDZ 1 mg i.v.; APZ arm (Table S1); geometric mean (90% CI)
quantity.kind: half-life (h)
Give the number; h is assumed, so skip it.

Req: Form field: reported half-life of "Cc1ncc2n1-c1ccc(Cl)cc1C(c1ccccc1F)=NC2"
Resp: 2.06

* * *

- Tested on: CYP3A
- assay.comment: Intravenous MDZ (1.0 mg i.v.) plasma pharmacokinetics (MDZ and 1′-OH-MDZ) alone and after repeated inhibitor administration
- assay.setup: human, in vivo, iv, 1 mg, i.v. MDZ CL, Baseline, ITZ arm; MDZ 1.0 mg i.v. before inhibitor; geometric mean (range)
quantity.kind: clearance

Req: Form field: reported clearance of Cc1ncc2n1-c1ccc(Cl)cc1C(c1ccccc1F)=NC2 [MDZ, midazolam]
Resp: 1380 mL/min

* * *

- assay.comment: Oral MDZ (1.5 mg p.o.) plasma pharmacokinetics (MDZ and 1′-OH-MDZ) alone and after repeated inhibitor administration
- assay.setup: human, in vivo, po, 1.5 mg, MDZ T1/2, MDZ alone, MDZ 1.5 mg p.o.; APZ arm (Table S1); geometric mean (90% CI)
quantity.kind: half-life
State the result as a value with its unit after it.

Req: Form field: reported half-life of "Cc1ncc2n1-c1ccc(Cl)cc1C(c1ccccc1F)=NC2"
Resp: 1.63 h

* * *

- assay.comment: Oral MDZ (1.5 mg p.o.) plasma pharmacokinetics (MDZ and 1′-OH-MDZ) alone and after repeated inhibitor administration
- assay.setup: human, in vivo, po, 1.5 mg, MDZ T1/2, MDZ alone, MDZ 1.5 mg p.o.; ITZ arm (Table S3); geometric mean (90% CI)
quantity.kind: half-life (h)
Give the number; h is assumed, so skip it.

Req: Form field: reported half-life of "Cc1ncc2n1-c1ccc(Cl)cc1C(c1ccccc1F)=NC2"
Resp: 1.43

* * *

- assay.comment: Oral MDZ (1.5 mg p.o.) plasma pharmacokinetics (MDZ and 1′-OH-MDZ) alone and after repeated inhibitor administration
- assay.setup: human, in vivo, po, 1.5 mg, MDZ Tmax, MDZ alone, MDZ 1.5 mg p.o.; APZ arm (Table S1); geometric mean (90% CI)
quantity.kind: Tmax (min)
Give the number; min is assumed, so skip it.

Req: Form field: reported Tmax of "Cc1ncc2n1-c1ccc(Cl)cc1C(c1ccccc1F)=NC2"
Resp: 45.6

* * *

- assay.comment: Intravenous MDZ (1.0 mg i.v.) plasma pharmacokinetics (MDZ and 1′-OH-MDZ) alone and after repeated inhibitor administration
- assay.setup: human, in vivo, iv, 1 mg, MDZ AUClast, MDZ alone, MDZ 1 mg i.v.; FKZ arm (Table S2); geometric mean (90% CI)
quantity.kind: AUC(0-t)
State the result as a value with its unit after it.

Req: Form field: reported AUC(0-t) of "Cc1ncc2n1-c1ccc(Cl)cc1C(c1ccccc1F)=NC2"
Resp: 12 ng·h/mL

* * *

- assay.comment: Oral MDZ (1.5 mg p.o.) plasma pharmacokinetics (MDZ and 1′-OH-MDZ) alone and after repeated inhibitor administration
- assay.setup: human, in vivo, po, 1.5 mg, MDZ T1/2, MDZ alone, MDZ 1.5 mg p.o.; FKZ arm (Table S2); geometric mean (90% CI)
quantity.kind: half-life (h)
Give the number; h is assumed, so skip it.

Req: Form field: reported half-life of Cc1ncc2n1-c1ccc(Cl)cc1C(c1ccccc1F)=NC2 [MDZ, midazolam]
Resp: 2.26

* * *

- assay.comment: Intravenous MDZ (1.0 mg i.v.) plasma pharmacokinetics (MDZ and 1′-OH-MDZ) alone and after repeated inhibitor administration
- assay.setup: human, in vivo, iv, 1 mg, MDZ Tmax, MDZ alone, MDZ 1 mg i.v.; APZ arm (Table S1); geometric mean (90% CI)
quantity.kind: Tmax (min)
Give the number; min is assumed, so skip it.

Req: Form field: reported Tmax of Cc1ncc2n1-c1ccc(Cl)cc1C(c1ccccc1F)=NC2 [MDZ, midazolam]
Resp: 17.4

* * *

- assay.comment: Intravenous MDZ (1.0 mg i.v.) plasma pharmacokinetics (MDZ and 1′-OH-MDZ) alone and after repeated inhibitor administration
- assay.setup: human, in vivo, iv, 1 mg, i.v. MDZ AUC0-inf, Baseline, FKZ arm; MDZ 1.0 mg i.v. before inhibitor; geometric mean (range)
quantity.kind: AUC(0-inf)

Req: Form field: reported AUC(0-inf) of "Cc1ncc2n1-c1ccc(Cl)cc1C(c1ccccc1F)=NC2"
Resp: 12.4 ng·h/mL
